Measured values drawn from patent US20240116985A1 for this set.

I'd appreciate it if you could supply IC50 values for the items below.
Biological target: full-length beta-Catenin (Uniprot ID P35222) (Homo sapiens, UniProt P35222)
Construct: 10 nM full-length beta-Catenin (Uniprot ID P35222)
Sequence (P35222 1-781): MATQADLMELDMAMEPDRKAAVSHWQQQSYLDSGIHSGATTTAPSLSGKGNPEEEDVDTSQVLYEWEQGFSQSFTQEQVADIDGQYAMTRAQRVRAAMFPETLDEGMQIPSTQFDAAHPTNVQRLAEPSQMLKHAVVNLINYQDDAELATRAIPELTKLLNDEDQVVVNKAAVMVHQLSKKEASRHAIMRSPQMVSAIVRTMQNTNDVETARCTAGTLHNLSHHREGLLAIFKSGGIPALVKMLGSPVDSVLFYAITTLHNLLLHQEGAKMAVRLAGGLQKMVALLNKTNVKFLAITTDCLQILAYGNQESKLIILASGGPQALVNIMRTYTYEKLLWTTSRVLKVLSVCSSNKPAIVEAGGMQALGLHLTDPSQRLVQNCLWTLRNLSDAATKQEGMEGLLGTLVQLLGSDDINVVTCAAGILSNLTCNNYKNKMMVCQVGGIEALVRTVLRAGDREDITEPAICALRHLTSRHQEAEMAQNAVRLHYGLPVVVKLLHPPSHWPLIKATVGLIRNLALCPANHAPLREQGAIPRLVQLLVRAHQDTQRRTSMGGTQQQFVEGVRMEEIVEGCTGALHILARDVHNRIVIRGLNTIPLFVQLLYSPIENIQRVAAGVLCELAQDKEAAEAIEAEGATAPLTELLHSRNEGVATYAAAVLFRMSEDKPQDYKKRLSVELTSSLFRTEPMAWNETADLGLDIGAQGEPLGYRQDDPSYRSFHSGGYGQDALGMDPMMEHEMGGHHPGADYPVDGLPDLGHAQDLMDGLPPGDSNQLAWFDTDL
Assay: Fluorescence polarization IC50 (beta-catenin / 5FAM-TCF4 10-53 competition)
Format: binding
Details: read-out: beta-Catenin FP IC50
Answers are plain numbers, in nM.

Recorded IC50, per entry:
compound="CC(=O)N1CCC[C@]12CC=CCCCC1(CCCC=CCCCOC(=O)N3CC[C@@](C(=O)N[C@@H](Cc4ccsc4)C(=O)N[C@@H](Cc4csc5ccccc45)C(=O)N[C@@H](CCC(N)=O)C(N)=O)(C3)NC(=O)[C@H](CC(N)=O)NC(=O)[C@H](Cc3ccccc3)NC(=O)[C@H](C)NC(=O)[C@H](C)NC(=O)[C@H](CC(C)C)NC(=O)[C@H](CC(=O)O)NC1=O)NC(=O)[C@H](CC(C)(C)C)NC(=O)[C@H](CC(=O)O)NC2=O (some centres unmarked)" value_kind=IC50 numeric_readout=56
compound="CC(=O)N1CCC[C@]12CC=CCCCC1(CCCC=CCCCOC(=O)N3CC[C@@](C(=O)N[C@@H](Cc4ccsc4)C(=O)N[C@@H](Cc4csc5ccccc45)C(=O)N[C@@H](CC(N)=O)C(N)=O)(C3)NC(=O)[C@H](CC(N)=O)NC(=O)[C@H](Cc3ccccc3)NC(=O)[C@H](C)NC(=O)[C@H](C)NC(=O)[C@H](CC(=O)O)NC(=O)[C@H](CC(=O)O)NC1=O)NC(=O)[C@H](CC(C)(C)C)NC(=O)[C@H](CC(=O)O)NC2=O (some centres unmarked)" value_kind=IC50 numeric_readout=5
compound="CC(=O)N1CCC[C@]12CC=CCCCC1(CCCC=CCCCOC(=O)N3CC[C@@](C(=O)N[C@@H](Cc4ccccc4)C(=O)N[C@@H](Cc4csc5ccccc45)C(=O)N[C@@H](CO)C(N)=O)(C3)NC(=O)[C@H](CO)NC(=O)[C@H](Cc3ccccc3)NC(=O)[C@H](C)NC(=O)[C@H](C)NC(=O)[C@H](CC(=O)O)NC(=O)[C@H](CC(=O)O)NC1=O)NC(=O)[C@H](CC1CCCCC1)NC(=O)[C@H](CC(=O)O)NC2=O (some centres unmarked)" value_kind=IC50 numeric_readout=16
compound="CC(=O)N1CCC[C@]12CC=CCCCC1(CCCC=CCCCOC(=O)N3CC[C@@](C(=O)N[C@@H](Cc4ccccc4Cl)C(=O)N[C@@H](Cc4csc5ccccc45)C(=O)N[C@@H](CCC(N)=O)C(N)=O)(C3)NC(=O)[C@H](CC(C)C)NC(=O)[C@H](Cc3ccccc3)NC(=O)[C@H](C)NC(=O)[C@H](C)NC(=O)[C@H](CCC(=O)O)NC(=O)[C@H](CC(=O)O)NC1=O)NC(=O)[C@H](CC(C)(C)C)NC(=O)[C@H](CC(=O)O)NC2=O (some centres unmarked)" value_kind=IC50 numeric_readout=471

We now examine a further compound.
Return the recorded IC50 value; entry: CC(=O)N1CCC[C@]12CC=CCCCC1(CCCC=CCCCCOC(=O)N3CC[C@@](C(=O)N[C@@H](Cc4ccsc4)C(=O)N[C@@H](Cc4csc5ccccc45)C(=O)N[C@@H](CC(N)=O)C(=O)N[C@H](C)C(N)=O)(C3)NC(=O)[C@H](CC(N)=O)NC(=O)[C@H](Cc3ccccc3)NC(=O)[C@H](C)NC(=O)[C@H](C)NC(=O)[C@H](CC(=O)O)NC(=O)[C@H](CC(=O)O)NC1=O)NC(=O)[C@H](CC(C)(C)C)NC(=O)[C@H](CC(=O)O)NC2=O (some centres unmarked) [I-835]
11
